Overview of recorded logP for various compounds
# Measurement Description: Partition coefficient (logP)
# Assay type: physicochemical
# Setup Conditions: octanol/water
Lab note: record the figure alone, no unit after it.

Field: example entries. Status: answers known.
In [3]: df
Out[3]:
                                smiles_code  assay_metric  measured_result
0  c1ccc(-n2cnc3cc(-c4ccc(OCCN5CCCCC5)cc4)ccc32)cc1          logP             4.29
1  c1ccc(-n2cnc3cc(-c4ccc(OCCN5CCCCC5)cc4)cnc32)cc1          logP             3.55

Look up logP: O=c1cc(-c2ccc3c(c2)ncn3-c2ccccc2)ccn1CCCN1CCCCC1
2.25
